variants and their reported yeast fitness
B1: tRNA (parent)
chain: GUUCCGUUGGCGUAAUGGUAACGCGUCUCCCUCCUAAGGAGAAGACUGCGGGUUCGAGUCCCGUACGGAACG

Variants of: B1
procedure.summary: yeast fitness relative to wild type (ratio to wild type); higher = fitter; tRNA-Arg(CCU), competitive growth, 37 C, YPD
Fewer inactive variants are shown than the library holds.

Please review the entries below; each comes with its answer.
1) GUUCCGUUGGCGUAAUGGUAACGCGUCUCCCUCCUAUGGAGAAGACUGCGGGUUCGAGUCCCGUCGGGAACG :: ≤ 0.5
2) GUUCCGUUGGCGUAAUGAUAACGCGUCUCUCUCCUAAGGAGAAGACUGCGGGUUCGAGUGCCGUACGGAACG :: ≤ 0.5

Turning now to a further variant:
Problem: So what does the record say about yeast fitness for GUUCCGUUGGCGUAAUGGUAACGCGUCUGCCGCCUAAGGAGAAGACUGCGGGUUCGAGUCCCGUACGGAACG ?
Solution: ≤ 0.5
